- ASSAY SYSTEM: human glucagon receptor (human) (UniProt P47871)
- Sequence (P47871 26-477): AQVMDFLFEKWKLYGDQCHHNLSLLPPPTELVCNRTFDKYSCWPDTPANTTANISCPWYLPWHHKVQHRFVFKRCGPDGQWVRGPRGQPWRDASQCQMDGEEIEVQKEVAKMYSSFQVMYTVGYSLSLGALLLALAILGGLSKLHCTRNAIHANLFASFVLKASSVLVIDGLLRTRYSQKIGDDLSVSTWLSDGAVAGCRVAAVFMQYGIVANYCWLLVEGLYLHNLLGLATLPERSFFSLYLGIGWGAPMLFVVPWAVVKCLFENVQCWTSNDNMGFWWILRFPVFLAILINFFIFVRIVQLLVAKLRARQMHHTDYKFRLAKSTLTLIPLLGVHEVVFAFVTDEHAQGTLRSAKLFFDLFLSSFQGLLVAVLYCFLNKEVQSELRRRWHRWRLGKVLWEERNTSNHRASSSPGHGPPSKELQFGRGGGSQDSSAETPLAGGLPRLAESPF
- PROTOCOL: cell-based or functional assay
Starred links: 1 amine or outer side, 2 acyl side, 3 side chain; linkers in the order of their positions; H or OH if unused. Non-standard residues stand in square brackets, D forms with d. Groups on a side chain read outwards from the residue. No end group written: not given here. *: point of attachment. C20 diacid = O=C(O)CCCCCCCCCCCCCCCCCCC(=O)*; Phe(4-CN) = N#Cc1ccc(C[C@H](N)C(=O)O)cc1; αMePhe(2-F) = C[C@](N)(Cc1ccccc1F)C(=O)O; γGlu = O=C(O)[C@H](CCC(=O)[*:2])N[*:1]; AEEA = NCCOCCOCC(=O)O; Aib = CC(C)(N)C(=O)O
Each entry below carries its recorded Relative cAMP EC50.
READOUT LABEL: Relative cAMP EC50 (nM)

[[record]]
binder = "YXQGTFTSDFSXXLDKKAQXAFIEWLLEGGSSSGAPPPSGH (synthetic construct; SITE 2: note = 2-Aminoisobutyric Acid; SITE 12: note = L-ornithine; SITE 13: note = alpha-methyl-leucine; SITE 17: note = Lysine is chemically modified through conjugation of the epsilon-amino group of the Lysine side chain with (2-[2-(2-Amino-ethoxy)-ethoxy]-acetyl)-(gamma-Glu)) [Example 270]"
quantity_unit = "nM"
test_value = 5

[[record]]
binder = "YXQGTFTSDXXQXLDXKAQXQFIQXLLEXGPSSGAPPPSGGGE (not fully specified; non-natural residues, acylated Lys, C-terminal amide; synthetic construct; SITE 2: note = 2-Aminoisobutyric Acid; SITE 10: note = 3-(4-Pyridyl)-L-alanine; SITE 11: note = alpha-methyl-L-serine; SITE 13: note = alpha-methyl-leucine; SITE 16: note = L-ornithine; SITE 17: note = Lysine is chemically modified through conjugation of the epsilon-amino group) [Example 1138]"
quantity_unit = "nM"
test_value = 1.01

[[record]]
binder = "Y[Aib]QGT[αMePhe(2-F)]TSD[Phe(4-CN)]SILLDKQAQK([AEEA-AEEA-γGlu-C20 diacid])AFIEYLLEGGPSSGEPPPSEG-NH2 [Example 321]"
quantity_unit = "nM"
test_value = 4.49

[[record]]
binder = "YXQGTFTSDXSQXLDXKAQXAFIEYLIAGGPSSGEPPPSGTEEE (synthetic construct; SITE 2: note = 2-Aminoisobutyric Acid; SITE 10: note = 3-(4-Pyridyl)-L-alanine; SITE 13: note = alpha-methyl-leucine; SITE 16: note = L-ornithine; SITE 17: note = Lysine is chemically modified through conjugation of the epsilon-amino group of the Lysine side chain with (gamma-Gl)) [Example 986]"
quantity_unit = "nM"
test_value = 4.94

[[record]]
binder = "YXQGTFTSDFSXXLDKKAQXAFIEYLLEAGPSSGXPPPSGH (synthetic construct; SITE 2: note = 2-Aminoisobutyric Acid; SITE 12: note = L-ornithine; SITE 13: note = alpha-methyl-leucine; SITE 17: note = Lysine is chemically modified through conjugation of the epsilon-amino group of the Lysine side chain with (2-[2-(2-Amino-ethoxy)-ethoxy]-acetyl)2-(gamma-Glu)) [Example 257]"
quantity_unit = "nM"
test_value = 7.36

[[record]]
binder = "YXQGTFTSDFSXXLDKKAQXAFIEYLLEGGPSSGAXPPGGS (Aib, Orn, αMeL, Hyp; AEEA-γGlu-C18 diacid on Lys; C-terminal amide; synthetic construct; SITE 2: note = 2-Aminoisobutyric Acid; SITE 12: note = L-ornithine; SITE 13: note = alpha-methyl-leucine; SITE 17: note = Lysine is chemically modified through conjugation of the epsilon-amino group of the Lysine side chain with (2-[2-(2-Amino-ethoxy)-ethoxy]-acetyl)-(gamma-Glu)) [Example 235]"
quantity_unit = "nM"
test_value = 4.35

[[record]]
binder = "YXQGTFTSDXSXXLDXKAQXAFIEXLLEGGPSSGAPPPSGS (synthetic construct; SITE 2: note = 2-Aminoisobutyric Acid; SITE 10: note = 3-(4-Pyridyl)-L-alanine; SITE 12: note = L-ornithine; SITE 13: note = alpha-methyl-leucine; SITE 16: note = L-ornithine; SITE 17: note = Lysine is chemically modified through conjugation of the epsilon-amino group of the Lys) [Example 933]"
quantity_unit = "nM"
test_value = 5.51

[[record]]
binder = "YXQGTXTSDXXIXLDXKAQXEFIEXLIEGGPSSGEPPPEGTGE (synthetic construct; SITE 2: note = 2-Aminoisobutyric Acid; SITE 6: note = alpha-methyl-2-fluoro-L-phenylalanine; SITE 10: note = 3-(4-Pyridyl)-L-alanine; SITE 11: note = alpha-methyl-L-serine; SITE 13: note = alpha-methyl-leucine; SITE 16: note = L-ornithine; SITE 17: note = Lysine is chemically mo) [Example 763]"
quantity_unit = "nM"
test_value = 1.57

[[record]]
binder = "YXQGTFTSDFSXXLDKKAQXAFIEYLLEGGPSSGAPPPGGSE (synthetic construct; SITE 2: note = 2-Aminoisobutyric Acid; SITE 12: note = L-ornithine; SITE 13: note = alpha-methyl-leucine; SITE 17: note = Lysine is chemically modified through conjugation of the epsilon-amino group of the Lysine side chain with (2-[2-(2-Amino-ethoxy)-ethoxy]-acetyl)-(gamma-Glu)) [Example 65]"
quantity_unit = "nM"
test_value = 6.49

[[record]]
binder = "YXQGTFTSDFSXXLDKKAQXAFIEYLLEGGXSSGAPPPGGS (Aib, Orn, αMeL, Hyp; lipidated Lys; C-terminal amide; synthetic construct; SITE 2: note = 2-Aminoisobutyric Acid; SITE 12: note = L-ornithine; SITE 13: note = alpha-methyl-leucine; SITE 17: note = Lysine is chemically modified through conjugation of the epsilon-amino group of the Lysine side chain with (2-[2-(2-Amino-ethoxy)-ethoxy]-acetyl)-(gamma-Glu)) [Example 234]"
quantity_unit = "nM"
test_value = 7.87

[[record]]
binder = "HXQGTXTSDYSILLDKKAQXAFIEYLEEGGPSSGAPPPS (not fully specified; synthetic construct; SITE 2: note = 2-Aminoisobutyric Acid; SITE 6: note = alpha-methyl-2-fluoro-L-phenylalanine; SITE 17: note = Lysine is chemically modified through conjugation of the epsilon-amino group of the Lysine side chain with (2-[2-(2-Amino-ethoxy)-ethoxy]-acetyl)-(gamma-Glu)-CO-(CH2) 16-) [Example 425]"
quantity_unit = "nM"
test_value = 5.49

[[record]]
binder = "YXQGTFTSDFSXXLDKKAQXAFIEYLIEXGESSGAPPPSGS (non-natural residues; lipidated Lys AEEA-γGlu-C18 diacid; C-term amide; synthetic construct; SITE 2: note = 2-Aminoisobutyric Acid; SITE 12: note = L-ornithine; SITE 13: note = alpha-methyl-leucine; SITE 17: note = Lysine is chemically modified through conjugation of the epsilon-amino group of the Lysine side chain with (2-[2-(2-Amino-ethoxy)-ethoxy]-acetyl)-(gamma-Glu)) [Example 229]"
quantity_unit = "nM"
test_value = 2.3

